System: K-562 leukemia
protocol_summary: NCI tumour cell line growth inhibition, 48 h

{"compound": "C/C(=N\\NC(=S)N/N=C(\\C)c1ccccn1)c1ccccn1", "TGI": "7.92 µM"}
{"compound": "CCCCc1ccc(Nc2nc(N)c3[nH]cnc3n2)cc1", "TGI": "> 100 µM"}
{"compound": "NNC(=S)N/N=C(\\c1nc2ccc(Cl)cc2[nH]c1=O)C(O)c1ccc(Cl)cc1Cl (centres undefined)", "TGI": "> 100 µM"}
{"compound": "COC(=O)C1=C(O)C(C(=O)OC)[C@@]2(O)[C@@H](C(=O)OC)C(c3ccccc3C(F)(F)F)C[C@@H]1[C@@H]2C(=O)OC (some centres undefined)", "TGI": "9.52 µM"}
{"compound": "c1ccc2c3c(c(N4CCNCC4)nc2c1)CCCC3", "TGI": "> 100 µM"}
{"compound": "CSCC[C@@H](NC(=O)[C@H](CC(C)C)NC(=O)C(Cc1cnc[nH]1)NC(=O)CNC(=O)[C@@H](NC(=O)[C@H](C)NC(=O)[C@H](Cc1cn(C=O)c2ccccc12)NC(=O)[C@H](CCC(N)=O)NC(=O)[C@@H](N)CC(N)=O)C(C)C)C(N)=O (some centres undefined)", "TGI": "> 100 µM"}
{"compound": "O=C(O)CC(Cc1ccccc1)C(=O)O (centres undefined)", "TGI": "> 100 µM"}
{"compound": "Cc1cc(C)cc(NC(=O)CCC(=O)C2CCC/C2=N\\NC(=O)C(=O)NN)c1 (centres undefined)", "TGI": "> 100 µM"}
{"compound": "NC(=O)NC1=NCCC(=O)N1CCc1c[nH]c2ccccc12", "TGI": "32.9 µM"}
{"compound": "CCOC(=O)C(=C=Cc1cccs1)C(=O)c1ccccc1", "TGI": "> 100 µM"}
{"compound": "CC1=NN(C(=O)CC(=O)Nc2ccccc2)C(=O)C1N=Nc1ccc(S(N)(=O)=O)cc1 (centres undefined)", "TGI": "> 100 µM"}
{"compound": "COc1ccc(/C(C#N)=C/c2nc3c(N4CCOCC4)nc(Cl)nc3n2C)cc1OC", "TGI": "11.4 µM"}
{"compound": "CCOC(=O)C(NC(=O)Nc1ccccc1)(Nc1cccc(Cl)c1)C(F)(F)F (centres undefined)", "TGI": "> 100 µM"}
{"compound": "COC(=O)c1nc(N)[nH]c(=O)c1-c1ccc(Cl)cc1", "TGI": "> 100 µM"}
{"compound": "O=C1/C(=C/c2ccc(F)cc2)CN(Cc2cn(CCNc3ccnc4cc(Cl)ccc34)nn2)C/C1=C\\c1ccc(F)cc1", "TGI": "1.58 µM"}
{"compound": "Cc1ccc(N=c2oc3c(ccc4ccccc43)nc2Nc2ccc(C)cc2)cc1", "TGI": "> 100 µM"}
{"compound": "O=C1c2cc(Br)ccc2-c2c1c1ccccc1c(=O)n2CCCCl", "TGI": "> 100 µM"}
{"compound": "C[N+](C)(C)CC(=O)NC(=O)N/N=C\\C(CC#N)CN(Cc1ccccc1)Cc1ccccc1 (centres undefined)", "TGI": "> 100 µM"}
{"compound": "COc1ccc(C2CC(c3cccc(Nc4ccnc5cc(Cl)ccc45)c3)=NN2c2ccccc2)cc1 (centres undefined)", "TGI": "32.3 µM"}

From: PubChem BioAssay (NCI)
